# Test system: HEK-293T
# procedure_details: Multiplex assay against HEK293T
# Type: toxicity, cell-based
# assay_setup: human, 12 h, 1 µM, compound concentration 1 uM, replicate 2
So basically, if Total Cell Count comes in under 800 it's label 1, and if it's 800 or more it's label 0.

compound	label
Cc1nc(Nc2n[nH]c3c2CN(C(=O)N[C@H](CN(C)C)c2ccccc2)C3(C)C)c2sccc2n1	label 0
C=CC(=O)Nc1cc2c(Nc3ccc(F)c(Cl)c3)ncnc2cc1OCCCN1CCOCC1.Cl.Cl [CANERTINIB DIHYDROCHLORIDE]	label 0

Is the reported Total Cell Count for "C[C@@]1(C(=O)Nc2ccc(F)nc2)CCCN1c1nc(Nc2cc(C3CC3)n[nH]2)c2cccn2n1" strictly below 800? label 1

A record lists COc1cccc([C@@H](C)NCCCc2ccccc2Cl)c1.Cl [TECALCET HYDROCHLORIDE] . Is its Total Cell Count below 800? label 1

Check if Total Cell Count falls below 800 for "COc1ncc(-c2ccc3nccc(-c4ccnnc4)c3c2)cc1NS(=O)(=O)c1ccc(F)cc1F" . label 1

I'd appreciate it if you could check whether CN1CCC[C@@H]1CCO[C@](C)(c1ccccc1)c1ccc(Cl)cc1.O=C(O)/C=C/C(=O)O [CLEMASTINE FUMARATE] has Total Cell Count smaller than 800. label 1

Consider the compound "Cc1csc2c(N[C@@H](C)CN3CCN(S(=O)(=O)c4ccc(Cl)c(Cl)c4)CC3)ncnc12" . Is its Total Cell Count strictly less than 800? label 1

* * *

Entries and their measured Total Cell Count follow.
# System: Fibroblast
# procedure_details: Multiplex assay against human fibroblast
# Format: toxicity, cell-based
# assay_setup: 24 h, 1 µM, compound concentration 1 uM, replicate 1
// keep it numeric: no unit symbol after the value

Worked examples, 5 compounds total:
compound	test_target	Total Cell Count
CN(C)CC#Cc1ccc(OCCCc2sc(N3CCc4cccc(C(=O)Nc5nc6ccccc6s5)c4C3)nc2C(=O)O)c(F)c1	Fibroblast	134
C=CC(=O)Nc1cc2c(Nc3ccc(F)c(Cl)c3)ncnc2cc1OCCCN1CCOCC1.Cl.Cl [CANERTINIB DIHYDROCHLORIDE]	Fibroblast	137
C[C@@]1(C(=O)Nc2ccc(F)nc2)CCCN1c1nc(Nc2cc(C3CC3)n[nH]2)c2cccn2n1	Fibroblast	219
COc1cccc([C@@H](C)NCCCc2ccccc2Cl)c1.Cl [TECALCET HYDROCHLORIDE]	Fibroblast	217
COc1ncc(-c2ccc3nccc(-c4ccnnc4)c3c2)cc1NS(=O)(=O)c1ccc(F)cc1F	Fibroblast	84

Reported Total Cell Count for "Cc1[nH]c(/C=C2\C(=O)Nc3ccc(S(=O)(=O)N(C)c4cccc(Cl)c4)cc32)c(C)c1C(=O)N1CCN(C)CC1" : what is it? 64

So what does the record say about Total Cell Count for "C=CC(=O)Nc1cccc(C(=O)Nc2ccc(Nc3cc(-c4[nH]c(SC)nc4C)ccn3)cc2)c1" ? 134

# Total Cell Count lookup, item CN(C)C(=O)N[C@H]1CC[C@H](CCN2CCN(c3cccc(Cl)c3Cl)CC2)CC1.Cl [CARIPRAZINE HYDROCHLORIDE] 95

* * *

# Test system: U2OS
# procedure_details: Multiplex assay against U2OS
# Type: toxicity, cell-based
# assay_setup: human, 12 h, 10 µM, compound concentration 10 uM, replicate 2
assay_readout: Population Healthy Nuclei (%)
Give a bare numeral; the unit % is implied.

# annotated cases, reported Population Healthy Nuclei (%) shown
compound	value_unit	value_measured
COc1cc(-n2cnc3cc(-c4ccc(Cl)cc4)sc3c2=O)ccc1OCCN1CCCC1	%	57
Cc1nc(Nc2n[nH]c3c2CN(C(=O)N[C@H](CN(C)C)c2ccccc2)C3(C)C)c2sccc2n1	%	63
Cc1c(-c2ccc(O)cc2)n(Cc2ccc(OCCN3CCCCCC3)cc2)c2ccc(O)cc12	%	56
Cc1nc(-c2ccc(-c3ccc(C(=O)N4CCc5cc6c(cc54)C4(CCN(C)CC4)CO6)cc3)c(C)c2)no1	%	77
C=CC(=O)Nc1cc2c(Nc3ccc(F)c(Cl)c3)ncnc2cc1OCCCN1CCOCC1.Cl.Cl [CANERTINIB DIHYDROCHLORIDE]	%	81
CN1CCC[C@@H]1CCO[C@](C)(c1ccccc1)c1ccc(Cl)cc1.O=C(O)/C=C/C(=O)O [CLEMASTINE FUMARATE]	%	41

Item "COc1cc2nccc(Oc3ccc(NC(=O)Nc4cc(C)on4)c(Cl)c3)c2cc1OC.O" has what recorded Population Healthy Nuclei (%)? 75

Requested read-out: Population Healthy Nuclei (%). Entry: COc1cccc([C@@H](C)NCCCc2ccccc2Cl)c1.Cl [TECALCET HYDROCHLORIDE] 75

* * *

# Tested on: HEK-293T
# procedure_details: Incucyte cell viability with HEK293T; note: filed as whole numbers so only -1 and 0 and 1 occur
# Type: toxicity, cell-based
# assay_setup: human, 24 h, 10 µM, compound concentration 10 uM, replicate number 1, timepoint 24 hours
Recorded Growth Rate, one value per entry.
Lab note: jot the number down without any unit.

item_smiles	Growth Rate
O=C(c1ccc(F)cc1)N1CC(COc2ccc(Br)cc2)(C(=O)O)C1	1
CNC(=NCCSCc1csc(N=C(N)N)n1)NC#N	0

API: the following record is the query input.
Any idea what its Growth Rate is? The molecule is "COc1cc(-n2cnc3cc(-c4ccc(Cl)cc4)sc3c2=O)ccc1OCCN1CCCC1" 0

* * *

# Tested on: HEK-293T
# procedure_details: Multiplex assay against HEK293T
# Type: toxicity, cell-based
# assay_setup: human, 12 h, 1 µM, compound concentration 1 uM, replicate 2
Population Membrane Permeable-Phenotype (%) reference
The reply should be a number in %, with the unit left off.

Record excerpt, results attached:
compound	value_measured
C[C@@H](NCCCc1cccc(C(F)(F)F)c1)c1cccc2ccccc12.Cl [CINACALCET HYDROCHLORIDE]	6
COc1ncc(-c2ccc3nccc(-c4ccnnc4)c3c2)cc1NS(=O)(=O)c1ccc(F)cc1F [OMIPALISIB]	0
NC(=O)Nc1cc(-c2cccc(F)c2)sc1C(=O)N[C@H]1CCCNC1 [AZD-7762]	5
C=CC(=O)Nc1cccc(C(=O)Nc2ccc(Nc3cc(-c4[nH]c(SC)nc4C)ccn3)cc2)c1	2
CC(C)NCC(O)COc1ccc(CCOCC2CC2)cc1.Cl (stereo unspecified) [BETAXOLOL HYDROCHLORIDE]	8
COc1cccc([C@@H](C)NCCCc2ccccc2Cl)c1.Cl [TECALCET HYDROCHLORIDE]	11
Cc1nc(Nc2n[nH]c3c2CN(C(=O)N[C@H](CN(C)C)c2ccccc2)C3(C)C)c2sccc2n1 [PF-03758309]	0
CC(C)C(=O)Nc1n[nH]c2cc(-c3cccc(NS(=O)(=O)C4CC4)c3)ccc12	1
CCN(CC)CCCCNc1ncc2cc(-c3cc(OC)cc(OC)c3)c(NC(=O)NC(C)(C)C)nc2n1 [PD-173074]	66
Cc1nc(-c2ccc(-c3ccc(C(=O)N4CCc5cc6c(cc54)C4(CCN(C)CC4)CO6)cc3)c(C)c2)no1 [SB-224289]	12

Which Population Membrane Permeable-Phenotype (%) value belongs to Cl.N#Cc1ccc2[nH]cc(CCCCN3CCN(c4ccc5oc(C(N)=O)cc5c4)CC3)c2c1 [VILAZODONE HYDROCHLORIDE] ? 6

Which Population Membrane Permeable-Phenotype (%) is listed for "CN(C)C(=O)/C(C#N)=C/c1ccc(-c2nc3cnc4[nH]ccc4c3n2C2CCCCC2)o1" ? 5

What value of Population Membrane Permeable-Phenotype (%) has been recorded for this entry: CN1CCC[C@@H]1CCO[C@](C)(c1ccccc1)c1ccc(Cl)cc1.O=C(O)/C=C/C(=O)O [CLEMASTINE FUMARATE] 13

* * *

# Test system: HEK-293T
# procedure_details: Multiplex assay against HEK293T;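 for Population Tubulin-Different-Phenotype (%): share of the cells with healthy nuclei that show this phenotype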
# Format: toxicity, cell-based
# assay_setup: human, 24 h, 10 µM, compound concentration 10 uM, replicate 2
assay_readout: Population Tubulin-Different-Phenotype (%)
Quick note: give the figure in %, leave out the unit.

compound	value_unit	value_measured
CN1CCCC(n2nc(Cc3ccc(Cl)cc3)c3ccccc3c2=O)CC1.Cl (stereo not drawn) [AZELASTINE HYDROCHLORIDE]	%	38
COc1cccc([C@@H](C)NCCCc2ccccc2Cl)c1.Cl [TECALCET HYDROCHLORIDE]	%	97
CN(C)C(=O)/C(C#N)=C/c1ccc(-c2nc3cnc4[nH]ccc4c3n2C2CCCCC2)o1	%	72
Cc1[nH]c(/C=C2\C(=O)Nc3ccc(S(=O)(=O)N(C)c4cccc(Cl)c4)cc32)c(C)c1C(=O)N1CCN(C)CC1	%	96

So what Population Tubulin-Different-Phenotype (%) did CN1CCN(c2ccc(OC(F)(F)F)c(Nc3ncc4c(n3)-c3c(c(C(N)=O)nn3CCO)CC4)c2)CC1 [ONVANSERTIB] get with HEK-293T? 83

Request: Population Tubulin-Different-Phenotype (%), test system HEK-293T, entry "C=CC(=O)Nc1ccc2ncnc(Nc3ccc(OCc4cccc(F)c4)c(Cl)c3)c2c1.Cc1ccc(S(=O)(=O)O)cc1" 45

Any idea what Population Tubulin-Different-Phenotype (%) came out for "C=CC(=O)Nc1cccc(C(=O)Nc2ccc(Nc3cc(-c4[nH]c(SC)nc4C)ccn3)cc2)c1" on HEK-293T? 81

So what Population Tubulin-Different-Phenotype (%) did "Cn1cc(-c2[nH]c3cc(NC(=O)[C@H](N)C4CCCCC4)cc4c3c2C=NNC4=O)cn1" get with HEK-293T? 70
